growth: recorded values
tested on: MDA-MB-231 breast; assay: NCI-60 one-dose screen, 48 h (100 = growth as untreated, 0 = no growth, -100 = all killed); settings: 10 µM unless noted
About 83,000 compounds went through this panel and 20% of them were active in at least one assay; those are over-represented in the sample as a whole.

compound: C=C1C(=O)O[C@H]2[C@H]1CC/C(COC(=O)/C=C\C(=O)O)=C\CC[C@@]1(C)O[C@@H]21
target.of.assay: MDA-MB-231 breast
growth / %: 103
//
compound: Cc1[nH]c2ccccc2c(=O)c1CC=C(Cl)Cl
target.of.assay: MDA-MB-231 breast
growth / %: 34.1
//
compound: CCOc1ccc(-c2nonc2NC(=O)c2cccc(C)c2)cc1OCC
target.of.assay: MDA-MB-231 breast
growth / %: 76.5
//
compound: O=C1/C(=C/c2ccc(O)cc2)COc2ccc(O)cc21
target.of.assay: MDA-MB-231 breast
growth / %: 107
//
compound: CCn1c(SCC(=O)Nc2cc(C(F)(F)F)ccc2Cl)nc2ccccc2c1=O
target.of.assay: MDA-MB-231 breast
growth / %: -25.6
//
compound: Clc1ncccc1Nc1ccc2nnc(-c3ccncc3)n2n1
target.of.assay: MDA-MB-231 breast
growth / %: 105
//
compound: O=C(N/N=C/c1ccccc1O)C(=O)Nc1ccc(F)cc1
target.of.assay: MDA-MB-231 breast
growth / %: 43.8
//
compound: COc1cccc(/C(C#N)=C/c2nc3c(N4CCOCC4)nc(Cl)nc3n2C)c1
target.of.assay: MDA-MB-231 breast
growth / %: -68.9
//
compound: Cn1nc(C(F)(F)F)c(-c2ccc(Cl)c(C(F)(F)F)c2)c1-c1ccc(OCc2ccc(Cl)cc2)cc1O
target.of.assay: MDA-MB-231 breast
growth / %: 8.7
//
compound: COc1ccc(Br)c(/C=C2\SC(=Nc3ccc(O)cc3)NC2=O)c1
target.of.assay: MDA-MB-231 breast
growth / %: 108
//
compound: COc1ccc(/C=c2\sc3n(c2=O)NC2C(N=3)N(C)C(=O)N2C)cc1 (stereo unspecified)
target.of.assay: MDA-MB-231 breast
growth / %: 96.8
//
compound: CCOC(=O)c1c2c(c(C)n1Cc1ccc(OC)cc1)-c1oncc1CC2
target.of.assay: MDA-MB-231 breast
growth / %: 115
//
compound: CSc1nc2c(c(=O)[nH]1)N=C1c3ccccc3C(=O)C1C(c1ccccc1)N2 (stereo unspecified)
target.of.assay: MDA-MB-231 breast
growth / %: 82.6
//
compound: COC(=O)c1ccc(NC(=O)CSc2nc3ccccc3c(=O)n2-c2ccccc2)cc1
target.of.assay: MDA-MB-231 breast
growth / %: 95.7
//
compound: Nc1no[n+]([O-])c1-c1nnc2c(n1)-c1ccccc1C2=O
target.of.assay: MDA-MB-231 breast
growth / %: 67.8
//
compound: COc1cc(OC)cc(N2C(=O)N(Cc3ccc(C(C)(C)C)cc3)c3ccccc3S2(=O)=O)c1
target.of.assay: MDA-MB-231 breast
growth / %: 77.4
//
compound: COc1ccc(CN2CCCC(C(=O)c3ccc(C(F)(F)F)cc3)C2)c(O)c1 (stereo unspecified)
target.of.assay: MDA-MB-231 breast
growth / %: 7.33
//
compound: O=C(Nc1ccccc1O)c1ccc(-c2ccc(Cl)cc2Cl)o1
target.of.assay: MDA-MB-231 breast
growth / %: 80.4
//
compound: O=C(CSc1ncccc1C(=O)O)Nc1ccc(Oc2ccccc2)cc1
target.of.assay: MDA-MB-231 breast
growth / %: 124
//
compound: O=C(c1nc2ccccc2[nH]1)C1C(c2ccc(F)cc2)C2CC3CCCCC3N2[C@@]12C(=O)Nc1ccc(Cl)cc12 (stereo partly specified)
target.of.assay: MDA-MB-231 breast
growth / %: 43.3
//
compound: Cc1ccccc1CNC(=O)C1CN(c2ccc(Cl)cc2)N(c2ccc(Cl)cc2)C1=O (stereo unspecified)
target.of.assay: MDA-MB-231 breast
growth / %: 84.6

====

System: CAKI-1 renal
Experiment: NCI-60 one-dose screen, 48 h (100 = growth as untreated, 0 = no growth, -100 = all killed)
Conditions: 10 µM unless noted
Description: Growth inhibition of the CAKI-1 human tumor cell line is measured as a screen for anti-cancer activity. Cells are grown in 96 well plates and exposed to the test compound for 48 hours. Compounds are tested at a single concentration, which is 10^-5 M for most compounds. The reported endpoint is percent growth (GI% or GIPRCNT), where numbers from 0 - 100% represent growth inhibition, and numbers from -100% - 0 represent cell death. For example, a value of 40 represents 60% growth inhibition. […]
About 83,000 compounds went through this panel and 20% of them were active in at least one assay; those are over-represented in the sample as a whole.

compound: O=C(Nc1ccc(I)cc1F)c1cc(Cl)ccc1O
target.of.assay: CAKI-1 renal
growth, %: -12
--
compound: COc1ccc(-c2nnc(COc3ccc(C(=O)/C=C/c4ccco4)cc3)o2)cc1
target.of.assay: CAKI-1 renal
growth, %: 67.2
--
compound: CCCCc1c(CCC)c(=N)c2ccccc2n1C
target.of.assay: CAKI-1 renal
growth, %: 81
--
compound: CC(=Nc1ccccc1)C1=C(O)C(Cc2ccc(F)cc2)NC1=O (stereo not given)
target.of.assay: CAKI-1 renal
growth, %: 33.6
--
compound: O=c1oc2ccc(I)cc2c(=O)n1-c1ccc(I)cc1F
target.of.assay: CAKI-1 renal
growth, %: -20.2
--
compound: Cc1ccc(NCCNCC(O)CO)c2c(=O)c3ccccc3sc12 (stereo not given)
target.of.assay: CAKI-1 renal
growth, %: 39.2
--
compound: O=S1(=O)N(Cc2ccccc2)[C@@H](Cc2ccccc2)[C@H](O)[C@H](O)[C@H](Cc2ccccc2)N1Cc1ccccc1
target.of.assay: CAKI-1 renal
growth, %: -19.1
--
compound: CCN(CC)CCNC(=O)C(Cl)=C1C(Cl)=C(Cl)C(Cl)=C1Cl
target.of.assay: CAKI-1 renal
growth, %: 6.11
--
compound: COc1cc(C#N)cc2[nH]c(=O)oc12
target.of.assay: CAKI-1 renal
growth, %: 91.8
--
compound: CN1C(=O)N(C)C2Nn3c(s/c(=C\c4ccc(Cl)cc4Cl)c3=O)=NC21 (stereo not given)
target.of.assay: CAKI-1 renal
growth, %: 48.4
--
compound: Nc1nc(-c2ccccc2Br)nn1-c1nc2ccccc2s1
target.of.assay: CAKI-1 renal
growth, %: 97.2
--
compound: CCOC(=O)c1c(Cl)c2c(n1Cc1ccccc1)-c1oncc1CCC2
target.of.assay: CAKI-1 renal
growth, %: 59.5
--
compound: O=C(Nc1ccc(Br)cc1F)c1cc(F)ccc1O
target.of.assay: CAKI-1 renal
growth, %: -16.7
--
compound: COc1ccc(C2C3=C(COC3=O)N(CCO)c3cc4c(cc32)CCC4)cc1OC (stereo not given)
target.of.assay: CAKI-1 renal
growth, %: 8.75
--
compound: O=C(Nc1ccc(N2CCNCC2)cc1)c1[nH]ncc1Nc1cc(C2CC2)ncn1
target.of.assay: CAKI-1 renal
growth, %: 27.5
--
compound: O=C(NCc1ccccc1)C1CN(c2ccc(Cl)cc2)N(c2ccc(Cl)cc2)C1=O (stereo not given)
target.of.assay: CAKI-1 renal
growth, %: 75.4
--
compound: COc1cc(/C=C/C(=O)c2c(C)nc3ccccc3c2/C=C/c2ccccc2)cc(OC)c1OC
target.of.assay: CAKI-1 renal
growth, %: 30.8
--
compound: Cc1ccc(OCCCCCCNCCO)c(C)c1
target.of.assay: CAKI-1 renal
growth, %: -8.91
--
compound: Fc1ccc(Oc2ccc(Nc3ncnc4onc(-c5ccccc5)c34)cc2)cc1
target.of.assay: CAKI-1 renal
growth, %: 93.5
--
compound: O=c1cc(NC2CCN(CCCc3ccccc3)CC2)c2cc(Cl)ccc2o1
target.of.assay: CAKI-1 renal
growth, %: -10.6
--
compound: COc1cc(/C=C2\CCC/C(=C\c3cc(CN4CCOCC4)c(O)c(OC)c3)C2=O)cc(CN2CCOCC2)c1O
target.of.assay: CAKI-1 renal
growth, %: 46.1
--
compound: Nc1nc2c(ncn2[C@@H]2O[C@H](CS)[C@@H](O)[C@H]2O)c(=O)[nH]1
target.of.assay: CAKI-1 renal
growth, %: 94.5
--
compound: Oc1ccc(-c2nc(-c3ccc4oc5ccc(-c6[nH]c(-c7ccc(O)cc7)nc6-c6ccccc6)cc5c4c3)c(-c3ccccc3)[nH]2)cc1
target.of.assay: CAKI-1 renal
growth, %: 69.5
--
compound: O=C(/C=C/c1ccc(Cl)cc1)c1ccc(Nc2nc(NCCO)nc(Nc3ccc(Cl)cc3)n2)cc1
target.of.assay: CAKI-1 renal
growth, %: 67.3
--
compound: CN1CCN(Cc2ccc(C(=O)Nc3cncc(C#Cc4cnc(N)c5ccccc45)c3)cc2C(F)(F)F)CC1
target.of.assay: CAKI-1 renal
growth, %: -91.4
--
compound: Cn1c(=O)n(C)c2cc(CNCCNc3ccnc4cc(Cl)ccc34)ccc21
target.of.assay: CAKI-1 renal
growth, %: 66.2
--
compound: CC(=O)O[C@@H]1/C=C/C(=O)N[C@@H](C)CCC/C=C/[C@@H]2CCC[C@H]21
target.of.assay: CAKI-1 renal
growth, %: 98.9
--
compound: COc1ccc2occ(C3=C(c4c[nH]c5ccccc45)C(=O)NC3=O)c2c1
target.of.assay: CAKI-1 renal
growth, %: 36.6
--
compound: Cc1nc2ccccc2c(/C=C/c2ccc(F)cc2)c1C(N)=O
target.of.assay: CAKI-1 renal
growth, %: 87.2
--
compound: CC[C@@H](C)[C@H](NC(=O)Cn1cc(CNC(=O)[C@@H](NC(=O)OCc2ccccc2)C(C)C)nn1)C(=O)O
target.of.assay: CAKI-1 renal
growth, %: 88.4
--
compound: CN(C)CCCNCc1ccc(-c2ccc(F)c(Cl)c2)o1
target.of.assay: CAKI-1 renal
growth, %: 37.5
--
compound: O=C(CCc1nnc2sc(Cc3ccccc3Cl)nn12)c1nc2ncccc2[nH]1
target.of.assay: CAKI-1 renal
growth, %: 74.4
--
compound: O=C(NC1CCN(Cc2ccccc2)CC1)c1cc(C(=O)NC2CCN(Cc3ccccc3)CC2)cc(C(=O)NC2CCN(Cc3ccccc3)CC2)c1
target.of.assay: CAKI-1 renal
growth, %: 12.2
--
compound: COc1ccc(C2=NN(/C=C3\SC(=O)NC3=Nc3ccc(F)cc3)C(c3ccc(F)cc3)C2)cc1 (stereo not given)
target.of.assay: CAKI-1 renal
growth, %: 89.1
--
compound: O=C(Nc1ccc(Cl)cc1)N1CCN(c2ccc3nncn3n2)CC1
target.of.assay: CAKI-1 renal
growth, %: 29.3
--
compound: O=c1oc2ccc(F)cc2c(=O)n1-c1ccc(I)cc1F
target.of.assay: CAKI-1 renal
growth, %: -19.2
--
compound: COC(=O)[C@H](NC(=O)C1(C)CCC[C@]2(C)[C@H]3C[C@H]4C(C(C)C)=C[C@]3(CC[C@@H]12)[C@@H]1C(=O)CCC(=O)[C@@H]14)C(C)C (stereo not given in full)
target.of.assay: CAKI-1 renal
growth, %: 88.4
--
compound: COc1ccc(-c2c(-c3ccc(OC)c(O)c3)cnc3ncnn23)cc1
target.of.assay: CAKI-1 renal
growth, %: 95.1
--
compound: COc1ccccc1C1=C(Br)C(=O)c2nc(C)ccc2C1=O
target.of.assay: CAKI-1 renal
growth, %: 98.4
--
compound: CCN(CC)c1cc(C)c2cc(NC(=O)c3cccc(OC)c3)ccc2n1
target.of.assay: CAKI-1 renal
growth, %: 73.2
